Data credit: ChEMBL document CHEMBL3507680

ASSAY_EXPLANATION: Human HepG2 cell viability assay in 384 well format
Type: toxicity, cell-based
Set-up: dose 125 nL, time 70.5 hour; concentration not given beside the values
EXPERIMENTAL_PARAMETERS: HepG2 cells, read-out: Inhibition
REPORTED_PROPERTY: cytotoxicity at 70.5 h (%)

>>> print(df.to_string())
                                    molecule  quantitative_readout
 0  CC(C)(Cn1cnc(-c2ccccc2)c1-c1ccco1)N1CCOCC1                 -10.2
 1  COc1ccc(CC(=O)N2C[C@@H]3COC[C@]3(CN(C)C)C2)cc1                 -17.9
 2  Cc1ccc(NC(=O)Cn2ncc(SCC(N)=O)c(Cl)c2=O)c(F)c1                 -17.2
 3              Cc1ncsc1-c1cc(C(=O)NCCO)ccn1                  21.2
 4  Cc1cnc(NCCCN2CCCCC2CO)nc1 (stereo not drawn)                 -1.85
 5  Cc1nn(C)c(C)c1OCC(=O)NCC(O)Cc1ccccc1 (stereo not drawn)                  1.56
 6  CC(=O)N[C@@H]1CN(Cc2ccccc2-n2cccn2)C[C@H]1C(C)C                 -4.08
 7   Cc1ccc(CN2CCc3ncc(CNS(C)(=O)=O)n3CC2)o1                 -12.4
 8  CC1CCN(c2nc3c(cnn3-c3ccccc3)c(=O)[nH]2)CC1                 -5.83
 9  COCCN1C[C@H]2CC[C@@]3(N=C(C)N(CC4CC4)C3=O)[C@H]2C1                  -2.1
10  COC(=O)[C@@H]1C[C@H](NC(=O)Cn2c(=O)cc(C)c3ccccc32)CN1C                  26.6
11  CCNC(=O)CN1CCN(c2cc(C)nc(-c3ccncc3)n2)CC1                 -0.76
12  COc1ccc2c(c1)OCC(Cc1ccc(N)nc1C)C2 (stereo not drawn)                 -8.63
13  CC(=O)c1cc(CC(=O)N2CCN(CCOc3ccccc3)CC2)cs1                 -1.31
14  CCc1cc(NC2CCN(S(C)(=O)=O)CC2)n2nc(C)c(C)c2n1                 -1.04
15  CCOC(=O)N1CCN(C(=O)c2sc(-c3ccc(F)cc3)nc2C)CC1                 -8.29
16  CSc1nccc(N2CCC3(CCCN(CC4CC4)C3)C2)n1 (stereo not drawn)                 -3.08
17  N#Cc1cccc(NC(=O)N2CCC3(CCC(=O)N(C4CC4)C3)CC2)c1                 -2.97
18        Cc1nnc(NC(=O)NCc2ccc(OC(C)C)nc2)s1                  20.6
19  CC(=O)N1CC(=O)N(c2cnn(C)c2)CC12CCN(Cc1ccoc1)C2 (stereo not drawn)                  1.31
20      Fc1cccc(N2CCc3ncnc(N4CCOCC4)c3CC2)c1                 -6.22
21      CN(C)c1ccc(NC(=O)c2cccc(N(C)C)c2)nc1                  15.4
22  O=C(NCCO)C1(CC2CC(c3ccc(F)cc3)=NO2)CCOCC1 (stereo not drawn)                  14.1
